Listed below: IC50 values for each entry.
Test system: 425362-245-T-J1 tumor spheroids, viability % test/control
Assay: Anticancer human tumor 425362-245-T-J1 patient-derived melanoma cell line growth inhibition
Conditions: curve of first compound; second compound 0.03 µM; spheroids with HUVEC and MSC

COMPOUND	IC50
COc1ccc([C@@H](O)c2cc(-c3ncnc4cc(N5CCOCC5)ccc34)c(F)cc2Cl)nn1 + CC[C@@]1(O)C(=O)OCc2c1cc1n(c2=O)Cc2cc3c(CN(C)C)c(O)ccc3nc2-1	< 31.6 nM
CNCc1ccc(-c2cc(-c3nc(-c4ccc(S(=O)(=O)C(C)C)cc4)cnc3N)on2)cc1 + CC[C@@]1(O)C(=O)OCc2c1cc1n(c2=O)Cc2cc3c(CN(C)C)c(O)ccc3nc2-1	< 9.49 nM
[2H]c1nc(C)nc([2H])c1-c1cc(NC[C@@H](C)c2cccc3c(C(=O)NC)ccnc23)ncn1 + CC[C@@]1(O)C(=O)OCc2c1cc1n(c2=O)Cc2cc3c(CN(C)C)c(O)ccc3nc2-1	< 31.6 nM

* * *

System: 425362-245-T-J1 tumor spheroids, viability % test/control
Assay: Anticancer human tumor 425362-245-T-J1 cell line growth inhibition;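 also: spheroids exposed to agents for 7 days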
Settings: curve of first compound; second compound 0.003 µM; spheroids with HUVEC and MSC
pIC50: −log10 of the molar value.
Listed below: pIC50 values for each entry.

COMPOUND	RELATION_SYMBOL	pIC50
COc1cc(C)[nH]c(=O)c1CN1CCc2c(Cl)cc(C(OC)C3COC3)c(Cl)c2C1=O (stereo not given) + COc1cc2c(cc1O)CCNC21CSC2c3c(OC(C)=O)c(C)c4c(c3C(COC1=O)N1C(O)C3Cc5cc(C)c(OC)c(O)c5C(C21)N3C)OCO4	>	7.50
[2H]c1nc(C)nc([2H])c1-c1cc(NC[C@@H](C)c2cccc3c(C(=O)NC)ccnc23)ncn1 + CC[C@@]1(O)C(=O)OCc2c1cc1n(c2=O)Cc2cc3c(CN(C)C)c(O)ccc3nc2-1	=	5.46
O=C(c1cc(Cc2n[nH]c(=O)c3ccccc23)ccc1F)N1CCN(C(=O)C2CC2)CC1 + COc1cc2c(cc1O)CCNC21CSC2c3c(OC(C)=O)c(C)c4c(c3C(COC1=O)N1C(O)C3Cc5cc(C)c(OC)c(O)c5C(C21)N3C)OCO4	>	7.02
O=C(c1cc(Cc2n[nH]c(=O)c3ccccc23)ccc1F)N1CCN(C(=O)C2CC2)CC1 + CC[C@@]1(O)C(=O)OCc2c1cc1n(c2=O)Cc2cc3c(CN(C)C)c(O)ccc3nc2-1	=	5.50
CNCc1ccc(-c2cc(-c3nc(-c4ccc(S(=O)(=O)C(C)C)cc4)cnc3N)on2)cc1 + CC[C@@]1(O)C(=O)OCc2c1cc1n(c2=O)Cc2cc3c(CN(C)C)c(O)ccc3nc2-1	=	7.26
COc1cc(C)[nH]c(=O)c1CN1CCc2c(Cl)cc(C(OC)C3COC3)c(Cl)c2C1=O (stereo not given) + CC[C@@]1(O)C(=O)OCc2c1cc1n(c2=O)Cc2cc3c(CN(C)C)c(O)ccc3nc2-1	<	5.00
Cn1ncnc1[C@H]1c2n[nH]c(=O)c3cc(F)cc(c23)N[C@@H]1c1ccc(F)cc1 + CC[C@@]1(O)C(=O)OCc2c1cc1n(c2=O)Cc2cc3c(CN(C)C)c(O)ccc3nc2-1	>	8.02
COc1ccc([C@@H](O)c2cc(-c3ncnc4cc(N5CCOCC5)ccc34)c(F)cc2Cl)nn1 + CC[C@@]1(O)C(=O)OCc2c1cc1n(c2=O)Cc2cc3c(CN(C)C)c(O)ccc3nc2-1	=	5.77
Cc1cc(C)c(CNC(=O)c2cc(-c3ccc(CN4CCOCC4)cc3)cc3c2cnn3C2CCCC2)c(=O)[nH]1 + CC[C@@]1(O)C(=O)OCc2c1cc1n(c2=O)Cc2cc3c(CN(C)C)c(O)ccc3nc2-1	=	5.49
CC(C)n1c(=O)n(C)c2cnc3cc(F)c(-c4ccc(OCCCN5CCCCC5)nc4)cc3c21 + CC[C@@]1(O)C(=O)OCc2c1cc1n(c2=O)Cc2cc3c(CN(C)C)c(O)ccc3nc2-1	>	7.50
